Known log10 Ki of a selection of compounds
biological target: Dopamine receptor; test: In vitro binding affinity to Dopamine receptors of rat striatal membranes by [3H]spiroperidol displacement.
Transform log10 | Measure Ki | Unit µM

Recorded result, CC(C)Nc1nc(N2CCN(C)CC2)nc(Cl)c1Br , log10 Ki: -0.32

Recorded result, Cc1c(Cl)nc(N2CCNCC2)nc1NC(C)C , log10 Ki: 0.46

Recorded result, COC(=O)[C@@H]1[C@H]2C[C@H]3c4[nH]c5ccccc5c4CCN3C[C@@H]2CC[C@@H]1O [YOHIMBINE] , log10 Ki: 0.30

Recorded result, CSc1c(N)nc(N2CCN(C)CC2)nc1Cl , log10 Ki: 0.00

Recorded result, CNc1cc(Cl)nc(N2CCN(C)CC2)n1 , log10 Ki: -0.20

Recorded result, CN1CCN(c2nc(N)c(Br)c(Cl)n2)CC1 , log10 Ki: 1.00

Recorded result, CSc1c(Cl)nc(N2CCNCC2)nc1NC(C)C , log10 Ki: 0.48

----------
Known Ki of a selection of compounds
target: Dopamine receptor; test: In vitro binding affinity to Dopamine receptors of rat striatal membranes by [3H]spiroperidol displacement.
# do not omit the unit; it follows the number

These solved cases illustrate the format of a correct answer.
CC(C)Nc1nc(N2CCNCC2)nc(Cl)c1Br | 880 nM
CSc1c(Cl)nc(N2CCN(C)CC2)nc1NCc1ccccc1 | 14 nM
Cc1c(Cl)nc(N2CCN(C)CC2)nc1NC(C)C | 880 nM

Recorded result, CC(C)Nc1nc(N2CCN(C)CC2)nc(Cl)c1Cl , Ki: 2400 nM

Recorded result, CNc1nc(N2CCN(C)CC2)nc(Cl)c1Cl , Ki: 1200 nM

Recorded result, CNc1nc(N2CCN(C)CC2)nc(Cl)c1Br , Ki: 200 nM

----------
Reported Ki for target or system Adrenergic receptor alpha-2 (Rattus norvegicus, UniProt P22086+P19328+P22909), by entry.
Report the value in nM with no unit label.

These solved cases illustrate the format of a correct answer.
CCNc1nc(N2CCN(C)CC2)nc(Cl)c1SC | 90
Cc1c(Cl)nc(N2CCNCC2)nc1NC(C)C | 6

Recorded result, CNc1nc(N2CCN(C)CC2)nc(Cl)c1OC , Ki: 150

----------
target: Adrenergic receptor alpha-2 (Rattus norvegicus, UniProt P22086+P19328+P22909)
Simple rule here: Ki less than 100 nM is true, otherwise false.

// below: answered compounds
CN1CCN(c2nc(N)c(Br)c(Cl)n2)CC1 | false
CSc1c(Cl)nc(N2CCN(C)CC2)nc1NCc1ccccc1 | false
CSc1c(Cl)nc(N2CCN(C)CC2)nc1NC(C)C | true
COc1c(Cl)nc(N2CCN(C)CC2)nc1NC1CCCC1 | true
CSc1c(Cl)nc(N2CCN(C)CC2)nc1NC(C)(C)C | false

Input line: Lab note: confirm whether the reported Ki for this compound is below 100 nM, equality not counting. compound: CC(C)Nc1nc(N2CCN(C)CC2)nc(Cl)c1Br
Output line: true

Input line: Lab note: confirm whether the reported Ki for this compound is below 100 nM, equality not counting. compound: CSc1c(Cl)nc(N2CCNCC2)nc1NC(C)C
Output line: true

----------
Known log10 Ki of a selection of compounds
molecular target: Adrenergic receptor alpha-1 (Rattus norvegicus, UniProt P15823+P23944+P43140); test: In vitro binding affinity was measured as the inhibition of [3H]WB-4101 binding to alpha-1 adrenergic receptor of rat cortical membranes; format: cell membranes, Membrane
Transform log10 | Measure Ki | Unit nM

These solved cases illustrate the format of a correct answer.
CC(C)Nc1nc(N2CCN(C)CC2)nc(Cl)c1Br | 2.46
CSc1c(Cl)nc(N2CCN(C)CC2)nc1NCCc1ccccc1 | 2.26
Cc1c(Cl)nc(N2CCNCC2)nc1NC(C)C | 2.93
CN1CCN(c2nc(N)c(Cl)c(Cl)n2)CC1 | 1.83
CN1CCN(c2nc(Cl)c(Br)c(NC3CCCC3)n2)CC1 | 2.40
CNc1nc(N2CCN(C)CC2)nc(Cl)c1Cl | 0.60
Cc1c(Cl)nc(N2CCN(C)CC2)nc1NC(C)C | 2.30
CSc1c(Cl)nc(N2CCN(C)CC2)nc1NC1CCCC1 | 1.88

The measured log10 Ki that COc1c(Cl)nc(N2CCN(C)CC2)nc1NC1CCCC1 showed for Adrenergic receptor alpha-1 (Rattus norvegicus, UniProt P15823+P23944+P43140) is 3.23

The measured log10 Ki that CNc1nc(N2CCN(C)CC2)nc(Cl)c1OC showed for Adrenergic receptor alpha-1 (Rattus norvegicus, UniProt P15823+P23944+P43140) is 3.23

The measured log10 Ki that CSc1c(Cl)nc(N2CCN(C)CC2)nc1NC(C)(C)C showed for Adrenergic receptor alpha-1 (Rattus norvegicus, UniProt P15823+P23944+P43140) is 2.65

----------
Target: Adrenergic receptor alpha-2 (Rattus norvegicus, UniProt P22086+P19328+P22909)
Sequence (P22086 whole entry): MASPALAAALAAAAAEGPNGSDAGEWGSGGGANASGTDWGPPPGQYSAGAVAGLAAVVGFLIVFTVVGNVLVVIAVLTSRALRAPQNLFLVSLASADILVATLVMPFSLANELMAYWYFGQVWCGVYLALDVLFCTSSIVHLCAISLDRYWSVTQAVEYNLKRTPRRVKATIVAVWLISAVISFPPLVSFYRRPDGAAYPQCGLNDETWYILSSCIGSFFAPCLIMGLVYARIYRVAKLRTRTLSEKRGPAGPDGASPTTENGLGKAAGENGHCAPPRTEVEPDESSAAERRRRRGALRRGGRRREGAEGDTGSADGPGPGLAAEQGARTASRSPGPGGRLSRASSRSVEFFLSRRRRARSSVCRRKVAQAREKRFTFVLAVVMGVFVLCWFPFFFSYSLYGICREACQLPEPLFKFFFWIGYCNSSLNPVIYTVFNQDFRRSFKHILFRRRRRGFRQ
Sequence (P19328 whole entry): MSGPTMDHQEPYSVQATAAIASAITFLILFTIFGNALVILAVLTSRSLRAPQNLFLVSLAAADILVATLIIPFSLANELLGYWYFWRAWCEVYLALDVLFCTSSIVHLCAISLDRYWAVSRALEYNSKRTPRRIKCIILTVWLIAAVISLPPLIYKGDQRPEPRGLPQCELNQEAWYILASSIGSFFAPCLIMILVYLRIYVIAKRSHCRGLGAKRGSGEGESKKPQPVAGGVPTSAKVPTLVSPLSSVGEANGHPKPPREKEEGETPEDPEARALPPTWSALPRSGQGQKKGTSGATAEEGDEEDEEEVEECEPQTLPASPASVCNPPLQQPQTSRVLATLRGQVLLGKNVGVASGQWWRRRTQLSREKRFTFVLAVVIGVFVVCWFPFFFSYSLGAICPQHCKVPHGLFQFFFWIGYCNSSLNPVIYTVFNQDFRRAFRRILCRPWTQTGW
Sequence (P22909 whole entry): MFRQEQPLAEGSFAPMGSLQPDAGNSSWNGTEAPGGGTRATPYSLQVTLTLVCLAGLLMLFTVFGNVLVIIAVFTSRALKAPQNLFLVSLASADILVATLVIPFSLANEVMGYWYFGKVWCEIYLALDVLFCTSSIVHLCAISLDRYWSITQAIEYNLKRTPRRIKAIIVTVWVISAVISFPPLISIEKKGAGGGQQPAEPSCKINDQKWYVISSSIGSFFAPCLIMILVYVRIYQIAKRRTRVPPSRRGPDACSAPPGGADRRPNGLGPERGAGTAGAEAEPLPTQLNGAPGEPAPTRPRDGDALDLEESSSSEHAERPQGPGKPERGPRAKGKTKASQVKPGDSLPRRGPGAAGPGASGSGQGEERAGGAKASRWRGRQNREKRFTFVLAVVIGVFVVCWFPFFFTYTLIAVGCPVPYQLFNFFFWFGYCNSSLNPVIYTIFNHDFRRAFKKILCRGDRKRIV
Test: Inhibition of [3H]idazoxan binding to alpha-2 adrenergic receptor of rat cortical membranes
Type: cell membranes, Membrane
Simple rule here: Ki less than 60 nM is Yes, otherwise No.

COc1c(Cl)nc(N2CCN(C)CC2)nc1NC1CCCC1 | Yes
CC(C)Nc1nc(N2CCNCC2)nc(Cl)c1Br | Yes
CN1CCN(c2nc(Cl)c(Br)c(NC3CCCC3)n2)CC1 | No
CNc1cc(Cl)nc(N2CCN(C)CC2)n1 | No
CSc1c(Cl)nc(N2CCNCC2)nc1NC(C)C | No
Cc1c(Cl)nc(N2CCNCC2)nc1NC(C)C | Yes
CNc1nc(Cl)c(SC)c(N2CCN(C)CC2)n1 | Yes

Input line: Lab note: confirm whether the reported Ki for this compound is below 60 nM, equality not counting. compound: CSc1c(Cl)nc(N2CCN(C)CC2)nc1Nc1ccccc1
Output line: No
